- System: P-gp
- Method Notes: Rh 123 bidirectional permeability / P-gp efflux across Caco-2 monolayers in microfluidic device
- Assay type: in vitro ADME
- Assay Conditions: human, Caco-2, 10 μM Rh 123, microfluidic device, day 10 of cell culture, n = 3; read-out: Papp(basal → apical)
- Protocol: Before carrying out the Rh 123 studies, buffer^+ was flowed to both the upper and lower channels for 1 hr. Following that Rh 123 (Sigma-Aldrich, Denmark) prepared in buffer^+ to a concentration of 10 μM was flowed to the basolateral side. 200μl of buffer^+ was added to each waste reservoirs. […] For the P-gp studies, the collected samples were analyzed for Rh 123 content using a fluorescence plate reader with excitation/emission of 485/546nm, based on standard curves prepared from test solutions. […]
Metric: Papp at 10 μM

# return recorded Papp at 10 μM for entry COC(=O)c1ccccc1-c1c2ccc(=N)cc-2oc2cc(N)ccc12 ~11.2 ×10⁻⁶ cm/s

* * *

- Tested on: P-gp
- Method Notes: Rh 123 bidirectional permeability / P-gp efflux across Caco-2 monolayers in microfluidic device
- Format: in vitro ADME
- Assay Conditions: human, Caco-2; microfluidic device, day 10 of cell culture; read-out: efflux ratio Papp(Basal→Apical)/Papp(Apical→Basal)
Metric: efflux ratio at 10 μM

Report efflux ratio at 10 μM, nothing else, for this compound: COC(=O)c1ccccc1-c1c2ccc(=N)cc-2oc2cc(N)ccc12 ~10.8

Entry source: paper PMC5944968
